- Tested on: hiPSC-CMs (iCell-Cardiomyocytes^2)
- MEASUREMENT SETUP: 1 µM, 96h
Kindly state Cessation of beating, number of observations/total well numbers for each of the entries shown.

Reported Cessation of beating, number of observations/total well numbers for hiPSC-CMs (iCell-Cardiomyocytes^2), given `COc1cccc2c1C(=O)c1c(O)c3c(c(O)c1C2=O)C[C@@](O)(C(=O)CO)C[C@@H]3O[C@H]1C[C@H](N)[C@H](O)[C@H](C)O1` ? 5/5

// lookup Cessation of beating, number of observations/total well numbers | system=hiPSC-CMs (iCell-Cardiomyocytes^2) | key= `C#Cc1cccc(Nc2ncnc3cc(OCCOC)c(OCCOC)cc23)c1` 0/5

Record `CC(C)(Sc1cc(C(C)(C)C)c(O)c(C(C)(C)C)c1)Sc1cc(C(C)(C)C)c(O)c(C(C)(C)C)c1` : what is its Cessation of beating, number of observations/total well numbers with hiPSC-CMs (iCell-Cardiomyocytes^2)? 0/4

---

- Test system: hiPSC-CMs (iCell-Cardiomyocytes^2)
- MEASUREMENT SETUP: 0.3 µM, 24h
READOUT LABEL: Flat T-wave-like, number of observations/total well numbers

Report Flat T-wave-like, number of observations/total well numbers for `CC(C)(Sc1cc(C(C)(C)C)c(O)c(C(C)(C)C)c1)Sc1cc(C(C)(C)C)c(O)c(C(C)(C)C)c1` please. 1/5

Record request: Flat T-wave-like, number of observations/total well numbers value, item `N=C(N)c1ccc(OCCCCCOc2ccc(C(=N)N)cc2)cc1` 0/5

Consider the compound COc1nc(N)nc2c1ncn2[C@@H]1O[C@H](COP(=O)(N[C@@H](C)C(=O)OCC(C)(C)C)Oc2cccc3ccccc23)[C@@H](O)[C@@]1(C)O (stereo partly shown) and give its measured Flat T-wave-like, number of observations/total well numbers. 0/5

Which Flat T-wave-like, number of observations/total well numbers is listed for `C#Cc1cccc(Nc2ncnc3cc(OCCOC)c(OCCOC)cc23)c1` ? 0/5

Form field: reported Flat T-wave-like, number of observations/total well numbers of `COc1cc2c(Nc3ccc(Br)cc3F)ncnc2cc1OCC1CCN(C)CC1` 1/5

Could you tell me which Flat T-wave-like, number of observations/total well numbers is on file for `COc1cccc2c1C(=O)c1c(O)c3c(c(O)c1C2=O)C[C@@](O)(C(=O)CO)C[C@@H]3O[C@H]1C[C@H](N)[C@H](O)[C@H](C)O1` ? 2/5

Form field: reported Flat T-wave-like, number of observations/total well numbers of `Cc1cn(-c2cc(NC(=O)c3ccc(C)c(Nc4nccc(-c5cccnc5)n4)c3)cc(C(F)(F)F)c2)cn1` 0/5

---

Exercise: for every item that follows, state its recorded FPDc (field-potential duration corrected by beat-rate), % change from baseline.
- Tested on: hiPSC-CMs (iCell-Cardiomyocytes^2)
- MEASUREMENT SETUP: 0.1 µM, 48h

# query: FPDc (field-potential duration corrected by beat-rate), % change from baseline of entry `COc1cccc2c1C(=O)c1c(O)c3c(c(O)c1C2=O)C[C@@](O)(C(=O)CO)C[C@@H]3O[C@H]1C[C@H](N)[C@H](O)[C@H](C)O1` -18.8±8.7 %

Give the measured FPDc (field-potential duration corrected by beat-rate), % change from baseline of `Cc1cn(-c2cc(NC(=O)c3ccc(C)c(Nc4nccc(-c5cccnc5)n4)c3)cc(C(F)(F)F)c2)cn1` . 12.7±3%

For the molecule `N=C(N)c1ccc(OCCCCCOc2ccc(C(=N)N)cc2)cc1` , what FPDc (field-potential duration corrected by beat-rate), % change from baseline is on record? 5.7±2%

For the molecule `COc1cc2c(Nc3ccc(Br)cc3F)ncnc2cc1OCC1CCN(C)CC1` , what FPDc (field-potential duration corrected by beat-rate), % change from baseline is on record? 40.3±1.1 %

Please give the measured FPDc (field-potential duration corrected by beat-rate), % change from baseline for this molecule: O=C(O)COCCN1CCN(C(c2ccccc2)c2ccc(Cl)cc2)CC1 (stereo not drawn) 8±2.9%

Which FPDc (field-potential duration corrected by beat-rate), % change from baseline reading was recorded for the molecule `CCN(CC)CCNC(=O)c1c(C)[nH]c(/C=C2\C(=O)Nc3ccc(F)cc32)c1C` ? 26.3±3.6 %

---

Can you tell me Beating below threshold, number of observations/total well numbers for the items I'm about to list?
- Test system: hiPSC-CMs (iCell-Cardiomyocytes^2)
- MEASUREMENT SETUP: 0.1 µM, 24h

Value wanted: Beating below threshold, number of observations/total well numbers (hiPSC-CMs (iCell-Cardiomyocytes^2)) of entry `COc1cccc2c1C(=O)c1c(O)c3c(c(O)c1C2=O)C[C@@](O)(C(=O)CO)C[C@@H]3O[C@H]1C[C@H](N)[C@H](O)[C@H](C)O1` 0/5

So what Beating below threshold, number of observations/total well numbers did `Cc1cn(-c2cc(NC(=O)c3ccc(C)c(Nc4nccc(-c5cccnc5)n4)c3)cc(C(F)(F)F)c2)cn1` get with hiPSC-CMs (iCell-Cardiomyocytes^2)? 0/5

Query Beating below threshold, number of observations/total well numbers on hiPSC-CMs (iCell-Cardiomyocytes^2) for `COc1cc2c(Nc3ccc(Br)cc3F)ncnc2cc1OCC1CCN(C)CC1` 0/5

Provide the documented Beating below threshold, number of observations/total well numbers with hiPSC-CMs (iCell-Cardiomyocytes^2) as the system for `N=C(N)c1ccc(OCCCCCOc2ccc(C(=N)N)cc2)cc1` 0/6

---

- Test system: hiPSC-CMs (iCell-Cardiomyocytes^2)
- MEASUREMENT SETUP: 0.1 µM, 24h
Record form. Attribute: BR (beating rate), % change from baseline. Fill in for each entry.
Quick reminder: number only, in %, skip the unit.

// lookup BR (beating rate), % change from baseline for `COc1cccc2c1C(=O)c1c(O)c3c(c(O)c1C2=O)C[C@@](O)(C(=O)CO)C[C@@H]3O[C@H]1C[C@H](N)[C@H](O)[C@H](C)O1` 41

Any idea what its BR (beating rate), % change from baseline is? The compound is O=C(O)COCCN1CCN(C(c2ccccc2)c2ccc(Cl)cc2)CC1 (centres unmarked) 2

Bench note: what BR (beating rate), % change from baseline did `CCN(CC)CCNC(=O)c1c(C)[nH]c(/C=C2\C(=O)Nc3ccc(F)cc32)c1C` show? -8

Which BR (beating rate), % change from baseline is listed for `COc1cc2c(Nc3ccc(Br)cc3F)ncnc2cc1OCC1CCN(C)CC1` ? -9

What measured BR (beating rate), % change from baseline goes with `N=C(N)c1ccc(OCCCCCOc2ccc(C(=N)N)cc2)cc1` ? 2

---

- Tested on: hiPSC-CMs (iCell-Cardiomyocytes^2)
- TEST NAME: MEA impedance (cytotoxicity readout) in hiPSC-CMs
- MEASUREMENT SETUP: 3 µM; 48h
READOUT LABEL: Imp (impedance), % change from baseline (%)
Please state the figure in %; there is no need to write the unit.

Lab request: please report Imp (impedance), % change from baseline under test system hiPSC-CMs (iCell-Cardiomyocytes^2) for CC(=O)Oc1ccccc1C(=O)O [Aspirin] -10

Given the entry COc1cccc2c1C(=O)c1c(O)c3c(c(O)c1C2=O)C[C@@](O)(C(=O)CO)C[C@@H]3O[C@H]1C[C@H](N)[C@H](O)[C@H](C)O1 [Doxorubicin] , what Imp (impedance), % change from baseline was observed with hiPSC-CMs (iCell-Cardiomyocytes^2)? -85

hiPSC-CMs (iCell-Cardiomyocytes^2) / Imp (impedance), % change from baseline / N=C(N)c1ccc(OCCCCCOc2ccc(C(=N)N)cc2)cc1 [Pentamidine] : value? -7

Report Imp (impedance), % change from baseline for CC(C)(Sc1cc(C(C)(C)C)c(O)c(C(C)(C)C)c1)Sc1cc(C(C)(C)C)c(O)c(C(C)(C)C)c1 [Probucol] tested on hiPSC-CMs (iCell-Cardiomyocytes^2). -5

---

For each of the molecules below, state its Flat T-wave-like, number of observations/total well numbers.
- System: hiPSC-CMs (iCell-Cardiomyocytes^2)
- MEASUREMENT SETUP: 0.1 µM, 48h

Which Flat T-wave-like, number of observations/total well numbers value belongs to `COc1cccc2c1C(=O)c1c(O)c3c(c(O)c1C2=O)C[C@@](O)(C(=O)CO)C[C@@H]3O[C@H]1C[C@H](N)[C@H](O)[C@H](C)O1` ? 0/5

So what does the record say about Flat T-wave-like, number of observations/total well numbers for `N=C(N)c1ccc(OCCCCCOc2ccc(C(=N)N)cc2)cc1` ? 0/6

Record request: Flat T-wave-like, number of observations/total well numbers value, item `Cc1cn(-c2cc(NC(=O)c3ccc(C)c(Nc4nccc(-c5cccnc5)n4)c3)cc(C(F)(F)F)c2)cn1` 0/5

Data request, read-out Flat T-wave-like, number of observations/total well numbers, for `COc1cc2c(Nc3ccc(Br)cc3F)ncnc2cc1OCC1CCN(C)CC1` 0/5
